# experimental-target: NAD-dependent protein deacetylase sirtuin-3, mitochondrial (Homo sapiens)
# cond: BL21-DE3, 100 uM
metric-name: inhibition (%)
Give bare numbers, in %.

Cc1ccc(C(=O)Nc2ccc(S(=O)(=O)O)c3ccccc23)cc1 = 25
NC(=O)c1ccc(Oc2cccc3ccccc23)cc1 = 10
O=C(Nc1cccc2cc(S(=O)(=O)O)ccc12)c1ccccc1 = 21
Cc1ccc(C(=O)Nc2ccc(S(=O)(=O)O)c3ccccc23)cc1[N+](=O)[O-] = 22

Please give inhibition, item by item, for the list that follows.
1. NC(=O)c1ccc(Oc2ccc3ccccc3c2)nc1
2. O=C(Nc1cccc2cccc(S(=O)(=O)O)c12)c1ccccc1

1. 44
2. 15
